- assay_method_text: in vivo
- experimental_setup: BALB/c, mouse, po, 25 mg/kg, tmax, lesion (type III), single 25 mg/kg oral dose of BDQ
measured_metric: Tmax (h)
Report the value in h with no unit label.

Asked: Reported Tmax, compound COc1nc2ccc(Br)cc2cc1[C@@H](c1ccccc1)[C@@](O)(CCN(C)C)c1cccc2ccccc12 : ____
Given back: 8

----------
- assay_method_text: in vivo
- experimental_setup: C3HeB/FeJ, mouse, po, 150 mg/kg, Cmax, plasma, single 150 mg/kg oral dose of PZA
Recorded Cmax by entry
Numeric only. Scale: µg/mL

O=C(O)c1cnccn1: 14.2

Read the next record carefully.
Asked: Which value of Cmax has been reported for NC(=O)c1cnccn1 [PZA, pyrazinamide] in the records?
Given back: 87.4
